Test system: A498
Assay Summary: NCI tumour cell line growth inhibition, 48 h
The source made the active and inactive calls. Cut-off read from the data, not from the text of the source: active = GI50 up to about 1.1 µM and inactive = higher.
Examples of compounds with documented GI50 follow.

Study these solved cases before continuing.
CCCCOC(=O)NC(=O)c1cn(CCCOC(=O)CCCCCCCCC(=O)OCCCn2cc(C(=O)NC(=O)OCCCC)c(=O)n(C)c2=O)c(=O)n(C)c1=O | > 100 µM (inactive)
COc1nc2[nH]ccc2c(=O)n1C | > 100 µM (inactive)
Cc1nc(=O)[nH]c2c1C(=O)N(C(C)C)C(NC(C)C)S2 (stereo unspecified) | > 100 µM (inactive)
CCOC(=O)/C=C1\c2ccccc2C(=O)N1CC(=O)OCC | > 100 µM (inactive)

Item: O=C1CC(c2cccc(Br)c2)n2cccc21 (stereo unspecified) | GI50: > 100 µM (inactive)

Item: NP(=O)(OCC1=CC(=O)c2ccccc2C1=O)N(CCBr)CCBr (stereo unspecified) | GI50: 20.8 µM (inactive)

Item: CC1(C)CCC2=C(O1)c1ccccc1/C(=N/c1ccc([N+](=O)[O-])cc1)C2=O | GI50: 18.7 µM (inactive)

====

System: COLO 205
Assay Summary: NCI tumour cell line growth inhibition, 48 h
Active and inactive are the calls of the source. No stated cut-off is given here; in the data, active = GI50 up to about 1.1 µM and inactive = higher.
Examples of molecules with documented GI50 follow.

Item: CC(C)=CCC/C(C)=C/Cc1c(O)ccc2c1[nH]c1cc(O)c(C)cc12 | GI50: > 25 µM (inactive)

Item: CC(C)c1ccc(O)c(=O)cc1 | GI50: 3.74 µM (inactive)

Item: Cc1ccc(-n2cc(-c3ccc(Cl)cc3)c3c(N/N=C4\SCC(=O)N4C)ncnc32)cc1 | GI50: 4.09 µM (inactive)

Item: CCOC(=O)/C(=C/c1ccccn1)C(=O)c1ccccc1 | GI50: 14.2 µM (inactive)

Item: O=C(Cc1ccccc1)Nn1c(-c2ccccc2)nc2ccccc2c1=O | GI50: > 100 µM (inactive)

Item: Cn1cnc([N+](=O)[O-])c1Sc1nccc(O)n1 | GI50: > 100 µM (inactive)

Item: O=C1c2ccccc2-c2c1c1ccccc1c(=O)n2CCO | GI50: 4.9 µM (inactive)

Item: CC1(C)N=C(/C(Cl)=[N+](/[O-])C(=O)c2ccc(F)cc2)C(C)(C)N1O | GI50: 18.5 µM (inactive)

Item: COC(=O)C1=C(C)N2[C@H](C(=O)O)CO[C@@]2(C)[C@H](C(=O)OC)[C@H]1c1cccc([N+](=O)[O-])c1 | GI50: > 100 µM (inactive)

Item: CC(=O)CCC[C@H](C)[C@@H](O)[C@@H]1O[C@H]([C@@]2(C)CCC(=O)O2)C[C@H]1C(=O)O | GI50: > 100 µM (inactive)

====

Test system: SNB-75
Assay Summary: NCI tumour cell line growth inhibition, 48 h
The source made the active and inactive calls. Rule as the data show it: active = GI50 up to about 1.1 µM and inactive = higher.
Examples of compounds with documented GI50 follow.

CCN(CCO)CCNc1ccc(C)c2sc3ccccc3c(=O)c12 | 3.01 µM (inactive)
O=C(O)c1c(-c2cccc3ccccc23)sc(-c2cccc3ccccc23)c1C(=O)O | > 100 µM (inactive)
C=CCN1C[C@H](C)N([C@H](c2ccc(C(=O)NC(CC)CC)cc2)c2cccc(OC)c2)C[C@H]1C | > 100 µM (inactive)
Cc1ccc(C(=O)CC(Cl)=C(Cl)Cl)cc1 | > 100 µM (inactive)
O=S1(=O)N=C(SCc2ccccc2)N(c2ccccc2)c2ccncc21 | 24.7 µM (inactive)
O=c1c2ccccc2sc2nc(O)nn12 | > 100 µM (inactive)
Cc1ccc(S(=O)(=O)NC(=O)NS(=O)(=O)O)cc1 | > 100 µM (inactive)
C=CCC1(O)CC(n2cc(C)c(=O)[nH]c2=O)OC1CO[Si](C)(C)C(C)(C)C (stereo unspecified) | 38 µM (inactive)
CN(C)c1ccc(/C=N/n2c(-c3ccccc3)nc3ccccc3c2=O)cc1 | 24.4 µM (inactive)
CCN(CC)C(=S)SS(C)(=O)=O | 29.6 µM (inactive)

Okay, now this compound:
Item: COc1ccc2c(c1)CCc1c(-c3noc4c3CCc3cc(OC)ccc3-4)noc1-2 | GI50: > 100 µM (inactive)

====

System: SK-MEL-2
Assay Summary: NCI tumour cell line growth inhibition, 48 h
Calls of active or inactive are those of the source. No stated cut-off is given here; in the data, active = GI50 up to about 1.1 µM and inactive = higher.
Can you answer with just one of these options? active, inactive

CC1(c2ccc(Cl)s2)CC(c2ccc(Cl)s2)=C(C#N)C(=C(C#N)C#N)N1 (configuration not stated) | inactive
O=C(Nc1ccccc1)c1cc(S(=O)(=O)Nc2nc3cccnc3[nH]2)c(SSc2cc(Cl)c(C(=O)Nc3ccccc3)cc2S(=O)(=O)Nc2nc3cccnc3[nH]2)cc1Cl | inactive
COC(=O)[C@@]12C(=O)C=CC(=O)C1C1C(=CC2C)OC2OC3(CCCCC3)OC21 (some centres not stated) | inactive
O=C(Nc1c(Cl)cc([N+](=O)[O-])cc1Cl)C(=O)C1C(=O)NC(=S)NC1=O | inactive
COc1cc(Cn2c3c(c4cc(O)ccc42)C(=O)c2ccccc2C3=O)cc(OC)c1 | inactive
O=c1c2ccccc2sc2nc(O)nn12 | inactive
COc1cc(N2C(=O)C(=O)C3(CCCCC3)C2=O)cc(OC)c1OC | inactive
O=C1CSC(c2cccc(Oc3ccccc3)c2)N1c1ccc(Cl)cc1 (configuration not stated) | inactive

Q: For COc1ccc2c(c1)CCc1c(-c3noc4c3CCc3cc(OC)ccc3-4)noc1-2 , what call appears in the results of this test?
Ans: inactive

Q: For COc1cc(O)c(C(=O)C2Cc3ccccc32)c(OC)c1 (configuration not stated) , what call appears in the results of this test?
Ans: inactive

Q: For CCCCCCCCCCCCCCCCC1=CC(=O)C=C(OC)C1=O , what call appears in the results of this test?
Ans: inactive

Q: For CC(=O)OCc1cc2c(s1)C(=O)c1sccc1C2=O , what call appears in the results of this test?
Ans: active

====

Examples of compounds with documented GI50 follow.
Test system: BT-549
Assay Summary: NCI tumour cell line growth inhibition, 48 h
Activity calls are given as the source filed them. No stated cut-off is given here; in the data, active = GI50 up to about 1.1 µM and inactive = higher.

Study these solved cases before continuing.
CSC(SC)=C1CC(=O)Nc2ccccc2C1=O | 40.3 µM (inactive)
Cn1c(=O)c2c(nc3n(CCCCl)c(=O)ccn23)n(C)c1=O | > 100 µM (inactive)
CCc1nc(N)nc(N)c1-c1ccc([N+](C)(C)C)cc1 | > 100 µM (inactive)
O=C(Cc1ccccc1)Nn1c(-c2ccccc2)nc2ccccc2c1=O | > 100 µM (inactive)
O=[N+]([O-])C(Cl)=C/C(=C(\Cl)SCc1ccccc1)[N+](=O)[O-] | 14.7 µM (inactive)

Okay, now this compound:
GI50 on BT-549 for O=c1[nH]c2ccccc2c(=O)n1/N=C\c1ccccc1O is > 100 µM (inactive)

====

Examples of molecules with documented GI50 follow.
Tested on: MDA-N
Assay Summary: NCI tumour cell line growth inhibition, 48 h
Calls of active or inactive are those of the source. No stated cut-off is given here; in the data, active = GI50 up to about 1.1 µM and inactive = higher.

c1ccc2c3ccn4ccc5c6ccccc6[nH]c5c4c-3nc2c1 | 1.34 µM (inactive)

Okay, now this molecule:
Item: CC(=O)[C@@]1(C)CC2(CCN(C)CC2)OC1C (stereo not given in full) | GI50: > 100 µM (inactive)

====

System: MOLT-4
Assay Summary: NCI tumour cell line growth inhibition, 48 h
Active and inactive are the calls of the source. Cut-off read from the data, not from the text of the source: active = GI50 up to about 1.1 µM and inactive = higher.
Measure: GI50

COC(=O)[C@@]12C(=O)C=CC(=O)C1C1C(=CC2C)OC2OC3(CCCCC3)OC21 (stereo partly drawn) | 6.11 µM (inactive)

GI50 on MOLT-4 for CCCCCCCCCCCCCCCCC1=CC(=O)C=C(OC)C1=O is > 100 µM (inactive)

GI50 on MOLT-4 for CN(C)CCN(c1ccccn1)c1ccccn1 is > 100 µM (inactive)

GI50 on MOLT-4 for O=C1Cc2cc3ccccc3nc2-c2ccccc2N1 is > 100 µM (inactive)

GI50 on MOLT-4 for c1ccc2c(c1)SCCC2NC1=NCCO1 (stereo not drawn) is > 100 µM (inactive)

GI50 on MOLT-4 for C/C=C/CP(=O)(c1ccccc1)c1ccccc1 is > 100 µM (inactive)

====

Tested on: KM12
Assay Summary: NCI tumour cell line growth inhibition, 48 h
The source made the active and inactive calls. Cut-off read from the data, not from the text of the source: active = GI50 up to about 1.1 µM and inactive = higher.
Can you answer with just one of these options? t = active, f = inactive

Recorded results for 8 compounds are shown here.
Cc1cc(O)nc(NN2C(Cl)C(=O)C2c2cccc(O)c2)n1 (stereo not given) | f
CCNCCC1(CC)C(=O)NC(=O)NC1=O | f
CN(C)CCNC(=O)c1cccc2c1Oc1cccc([N+](=O)[O-])c1O2 | f
COc1cc2c(c(OC)c1OC)-c1ccc(SC)c(=O)cc1C(CC(=O)Oc1ccc(F)cc1)C2 (stereo not given) | t
Cc1ccc(C(=O)CC(Cl)=C(Cl)Cl)cc1 | f
O=[N+]([O-])C(Cl)=C/C(=C(\Cl)SCc1ccccc1)[N+](=O)[O-] | f
Oc1ccc(/N=C/c2ccc(/C=N/c3ccc(O)cc3)cc2)cc1 | f
Cc1ccc([N+](=O)[O-])cc1S(=O)(=O)Nc1ccc(C2=NOC(c3ccco3)C2)cc1 (stereo not given) | f

Q: For Cc1cccc2c1Oc1cc(Cl)ccc1C2NC(=O)CCN1CCOCC1 (stereo not given) , what call appears in the results of this test?
Ans: f

Q: For O=P1(Oc2ccc(Cl)cc2Cl)Oc2ccc3ccccc3c2-c2c(ccc3ccccc23)O1 , what call appears in the results of this test?
Ans: f

# credit: ChEMBL document CHEMBL1201862
